- System: Fibroblast
- test: Incucyte cell viability with human fibroblast; also: unitless GR value; below 1 slowed growth and below 0 cell loss
- Type: toxicity, cell-based
- conditions: 0 h, 10 µM, compound concentration 10 uM, replicate number 1
Would you mind telling me the reported Growth Rate of each entry?
I'd appreciate a reply containing only the number, no unit.

Lab note: compound `Cc1c(-c2cc(-c3ccccc3Cl)no2)cnn1C1CCNCC1.Cl` tested on Fibroblast; recorded Growth Rate was 0.68

I looked up `O=C(NS(=O)(=O)N1CCC1)c1cc(C2CC2)c(OCC23CC4CC(CC(C4)C2)C3)cc1F` and its Growth Rate for Fibroblast was 0.19

Query CN(C)C(=O)Cn1cc(-c2nc(C3(c4ccc(-c5cnc(N)nc5)cc4)CC3)no2)cn1 [BI 0153] on Fibroblast; Growth Rate returned: -1

Reported Fibroblast Growth Rate for item `Cc1nc2cccnc2n2c(-c3cc(C(C)(C)O)ncc3Cl)nnc12` was -1

Tested system Fibroblast; Growth Rate recorded for CCCCCCCC/C=C\CCCCCCCC(=O)NCc1ccc(O)c(OC)c1 [OLVANIL] was 0.97

For the compound `O=C(O)C(F)(F)F.O=C1NC(=O)/C(=C/c2c[nH]c(=O)c(-c3ccc(N4CCNCC4)nc3)c2)S1` , the measured Growth Rate on Fibroblast was 0.18

GET /values?item= CCCCCCCN(CCc1ccc(SC(C)(C)C(=O)O)cc1)C(=O)Nc1ccc(F)cc1F [GSK-9578] &system= Fibroblast returns Growth Rate: 0.58

Field Growth Rate (system: Fibroblast) for entry `Cc1cn([C@H](C)CC#N)c(=O)c2cc(Cn3nc(C(F)F)cc3Cl)nn12` = -1

Tested on Fibroblast: CCn1cnc2c(-c3ccc(F)c(-c4ccc(S(=O)(=O)CC)cc4OC)c3)cnnc21 [DARIGABAT] . Observed Growth Rate: -0.83

Growth Rate value, target or system Fibroblast, for CC/C(=C(\c1ccc(O)cc1)c1ccc(OCCN(C)C)cc1)c1ccccc1 [AFIMOXIFENE] : 0.22

Log: Fibroblast, compound `OC(c1ccc(-c2ccc(CN3CCN(Cc4ccncc4)CC3)cc2)c(F)c1)(C(F)(F)F)C(F)(F)F` , Growth Rate = 0.65

Reported Fibroblast Growth Rate for item `C=CC(=O)N1CCC[C@@H](n2nc(C(=O)Nc3ccc(CC(=O)N(C)C)c(C)c3C)c3c(N)ncnc32)C1` was 0.74

Param item: `COC(=O)Nc1nc2c(s1)-c1c(c(-c3cccnc3)nn1-c1ccc(C3(N(C)C)CC3)cc1)CC2.Cl.Cl` ; param system: Fibroblast; output Growth Rate: -0.29

Record `O=C1NC(=NCc2cccs2)SC1=Cc1ccc2ncccc2c1` has Fibroblast Growth Rate equal to -1

Readout Growth Rate for COc1ccc(-c2cc3c(C)nc(N)nc3n([C@H]3CC[C@H](OCCO)CC3)c2=O)cn1 [PF-04691502] , test system Fibroblast, was -1

Measured Growth Rate for this entry `Cl.O=c1cc(C2CCNCC2)n2nc3cccc(Cl)c3c2[nH]1` on Fibroblast: -0.94

The reported Growth Rate value, Fibroblast, for [2H]C([2H])([2H])NC(=O)c1nnc(NC(=O)C2CC2)cc1Nc1cccc(-c2ncn(C)n2)c1OC [DEUCRAVACITINIB] reads 0.51

`CS(=O)(=O)O.C[C@H](NC(=O)c1cnc2n1[C@](C)(Cc1ccc(C#N)cc1)C(=O)N2c1cc(Cl)c(F)c(Cl)c1)C(=O)NC1(c2ccccn2)CC1` tested on Fibroblast gave Growth Rate: -1

// assay Fibroblast, entry `C[C@@H](c1ccc(F)cc1)n1nnc2cnc3ccc(-c4ccc5ocnc5c4)cc3c21` , Growth Rate value = 0.85

Note to self: Growth Rate of CCCCC[C@H](O)/C=C/[C@H]1[C@H](O)CC(=O)[C@@H]1CCCCCCC(=O)O [ALPROSTADIL] with Fibroblast was -1

# COc1cc(F)ccc1-c1cc(Nc2cc(CS(C)(=N)=O)ccn2)ncc1F (stereo not given) [ENITOCICLIB] with Fibroblast: Growth Rate is -1

Summary: `C=CC(=O)Nc1cccc(C(=O)Nc2ccc(NC(=O)c3cccc(-c4ccn[nH]4)n3)cc2)c1` , Fibroblast, Growth Rate = 0

Record CC(C)(C)c1ccc2c(c1)CC[C@H]2NC(=O)Nc1cccc2[nH]ncc12 [ABT-102] / Fibroblast, Growth Rate recorded as 0.1

Measured on Fibroblast, `CCN(c1ccccc1)c1cc(NC)[n+](C)c(C)n1.[Cl-]` has a documented Growth Rate of -0.7

Item: `NC(=O)c1ccc(-c2nc(-c3ccc4c(c3)OCCO4)c(-c3ccccn3)[nH]2)cc1` | System: Fibroblast | Growth Rate: -1

Let me check: Cc1cc(Nc2ncc(Cl)c(Nc3ccccc3S(=O)(=O)C(C)C)n2)c(OC(C)C)cc1C1CCNCC1 [CERITINIB] , system Fibroblast, measured Growth Rate is -0.31

Measured Growth Rate (Fibroblast), entry `CC(C)c1nc2c(c3c1[C@H](c1ccc(C(F)(F)F)cc1)OC31CCOCC1)[C@H](O)CC(C)(C)C2` : -1

Entry CCN1C(=O)C(c2cccc(C(=O)O)c2)C(=O)N(c2ccccc2)c2cc(C(F)(F)F)ccc21 (stereo not given) , tested on Fibroblast, has a reported Growth Rate of -1

Item: `Cc1nc2c(cc1F)c(-c1nnc3c(n1)NC(=O)C3(C)C)nn2Cc1cccc(F)c1F` | System: Fibroblast | Growth Rate: -1

Growth Rate of `Cc1cc(CN)cc(C)c1-c1ncn(C)c1-c1cncn1C.Cl` , assay on Fibroblast, is -1

Fibroblast assay, compound Cn1ncc(-c2nc(N[C@H]3CC[C@H](N)CC3)ncc2Cl)c1CC1CC1 [BTX-A51] , recorded Growth Rate = -0.32

// Growth Rate (Fibroblast) for `O=C(Nc1snnc1C(=O)Nc1ccc(N2CCCC2)cc1)c1cncc(C(F)(F)F)c1` = -1

# Growth Rate measured on Fibroblast for item `Cc1cc(O)c(-c2ccc([C@@H](C)CN(C)C)cc2)c2c1[nH]c(=O)c1sccc12` = 0.34

# value of Growth Rate, Fibroblast, item CC(C)(C)c1cnc(CSc2cnc(NC(=O)C3CCN(CC(=O)NCCOCCOCCOCCNc4cccc5c4C(=O)N(C4CCC(=O)NC4=O)C5=O)CC3)s2)o1 (stereo not given) = -0.99

Growth Rate value, target or system Fibroblast, for `Br.CO[C@H]1CC=C2CCN3CCC4=C(CC(=O)OC4)[C@]23C1` : 0.93
